For each of the molecules below, state its Inhibition rate (%).
# Target system: human recombinant (CHO cell) AT1 receptor (Homo sapiens)
# Construct: expressed in transfected cells; host or cells: CHO cells
# Sequence (P30556 1-359): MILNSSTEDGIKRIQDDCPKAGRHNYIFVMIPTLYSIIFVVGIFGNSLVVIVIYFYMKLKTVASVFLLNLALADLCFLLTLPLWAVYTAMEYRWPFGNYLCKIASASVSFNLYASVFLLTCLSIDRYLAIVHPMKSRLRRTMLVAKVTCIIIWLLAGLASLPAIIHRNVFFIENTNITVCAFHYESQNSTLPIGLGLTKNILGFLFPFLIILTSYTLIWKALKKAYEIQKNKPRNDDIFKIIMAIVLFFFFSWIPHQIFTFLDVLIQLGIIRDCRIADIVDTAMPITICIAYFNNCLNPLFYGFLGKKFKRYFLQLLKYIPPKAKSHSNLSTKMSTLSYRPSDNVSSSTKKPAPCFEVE
# Experiment description: Angiotensin II inhibition test (radioligand binding to AT1 receptor)
# Condition: test compound concentration 10^−9 M; radioactive iodine-labeled angiotensin II, 37° C., sixty minutes
Entry rule: numbers only, all in %.

[ask] Please report the recorded Inhibition rate (%) for CCCc1nc2c(C)cc(-c3nc4ccc(N(C)CCOc5ccc6nc(COc7ccc(CC8SC(=O)NC8=O)cc7)n(C)c6c5)cc4n3C)cc2n1Cc1ccc(-c2ccccc2-c2nnn[nH]2)cc1 (stereo not shown) .
[reply] 60

[ask] Also check CCCc1nc(COc2ccc(Sc3ccc4nc(COc5ccc(CC6SC(=O)NC6=O)cc5)n(C)c4c3)cc2)c(C(=O)OCC)n1Cc1ccc(-c2ccccc2-c2nnn[nH]2)cc1 (stereo not shown)
[reply] 40

[ask] Also check CCCc1nc(CSc2ccc(Oc3ccc4nc(COc5ccc(CC6SC(=O)NC6=O)cc5)n(C)c4c3)cc2)c(C(=O)NC)n1Cc1ccc(-c2ccccc2-c2nnn[nH]2)cc1 (stereo not shown)
[reply] 66

[ask] Also check CCCc1nc(CSCCNC(=O)CSc2ccc3nc(COc4ccc(CC5SC(=O)NC5=O)cc4)n(C)c3c2)c(C(=O)OCC)n1Cc1ccc(-c2ccccc2-c2nnn[nH]2)cc1 (stereo not shown)
[reply] 65
